target: UniProt:P10827; assay: In vitro TR-α activity (in-house protocol)
measuredMetric: EC50

INSERT INTO results (compound, recordedmeasurement) VALUES
  ('CCC(C)c1cc(Oc2c(Cl)cc(N(CC(=O)O)C(=O)Oc3ccc(O)cc3)cc2Cl)ccc1O (stereo not drawn) [Example 23]', '9.26 nM'),
  ('O=C(O)CN(C(=O)Oc1ccc(O)cc1)c1cc(Cl)c(Oc2ccc(O)c(C(=O)c3ccc(F)cc3)c2)c(Cl)c1 [Example 55]', '107 nM'),
  ('CCOC(=O)N(CC(=O)O)c1cc(Cl)c(Oc2ccc(O)c(C(C)C)c2)c(Cl)c1 [Example 1]', '440 nM'),
  ('O=C(O)CN(C(=O)Oc1ccc(O)cc1)c1cc(Cl)c(Oc2ccc(O)c(C(=O)c3ccc(Cl)cc3)c2)c(Cl)c1 [Example 44]', '84.8 nM'),
  ('CCC(C)c1cc(Oc2c(Cl)cc(N(CC(=O)O)CC(=O)O)cc2Cl)ccc1O (stereo not drawn) [Example 26]', '176 nM'),
  ('O=C(O)CN(C(=O)Oc1ccc(O)cc1)c1cc(Cl)c(Oc2ccc(O)c(-c3ccccc3)c2)c(Cl)c1 [Example 49]', '38 nM');

Values from patent US8420851B2
